The measured values listed here are drawn from ChEMBL document CHEMBL3039007.

# target_or_system: Solute carrier organic anion transporter family member 1B3 (Homo sapiens, UniProt Q9NPD5)
# Sequence (Q9NPD5 whole entry): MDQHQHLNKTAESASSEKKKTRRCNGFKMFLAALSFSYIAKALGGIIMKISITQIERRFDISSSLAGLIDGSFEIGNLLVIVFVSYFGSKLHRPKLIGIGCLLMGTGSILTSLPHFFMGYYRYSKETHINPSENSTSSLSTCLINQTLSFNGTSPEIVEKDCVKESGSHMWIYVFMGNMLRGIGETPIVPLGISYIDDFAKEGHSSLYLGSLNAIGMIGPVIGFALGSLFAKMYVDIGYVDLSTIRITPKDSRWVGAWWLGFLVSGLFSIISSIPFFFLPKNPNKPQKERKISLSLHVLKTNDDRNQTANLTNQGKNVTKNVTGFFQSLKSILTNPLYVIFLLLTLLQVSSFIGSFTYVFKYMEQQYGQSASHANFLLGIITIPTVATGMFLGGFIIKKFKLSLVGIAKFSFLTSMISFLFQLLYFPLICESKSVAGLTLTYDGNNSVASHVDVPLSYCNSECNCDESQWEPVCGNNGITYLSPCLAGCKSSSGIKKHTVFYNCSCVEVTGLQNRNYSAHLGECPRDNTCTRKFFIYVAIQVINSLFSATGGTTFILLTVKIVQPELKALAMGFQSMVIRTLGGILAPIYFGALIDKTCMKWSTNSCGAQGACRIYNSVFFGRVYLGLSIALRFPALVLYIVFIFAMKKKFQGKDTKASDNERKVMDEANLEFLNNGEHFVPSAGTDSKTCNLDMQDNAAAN
# condition_set: chinese hamster, cho, 10 µM
# cutoff 70% applies to residual activity; >= gives class 1, < gives class 0

molecule | target_or_system | class_name
Nc1nc2ccc(OC(F)(F)F)cc2s1 [RILUZOLE] | Solute carrier organic anion transporter family member 1B3 (Homo sapiens, UniProt Q9NPD5) | class 1
CC1=C(/C=C/C(C)=C/C=C/C(C)=C/CO)C(C)(C)CCC1 [RETINOL] | Solute carrier organic anion transporter family member 1B3 (Homo sapiens, UniProt Q9NPD5) | class 0
CC(C)=CCc1c(O)cc2occ(-c3ccc4c(c3)OCO4)c(=O)c2c1O [DERRUBONE] | Solute carrier organic anion transporter family member 1B3 (Homo sapiens, UniProt Q9NPD5) | class 1
C[C@]12CC[C@@H](OS(=O)(=O)[O-])C[C@@H]1CC[C@@H]1[C@@H]2CC[C@]2(C)C(=O)CC[C@@H]12.[Na+] | Solute carrier organic anion transporter family member 1B3 (Homo sapiens, UniProt Q9NPD5) | class 0
CC(=O)O[C@H]1C[C@@H](OC(C)=O)C(C)(C)[C@@H]2CC(=O)[C@]3(C)[C@H](CC[C@@]4(C)[C@H](C(=O)O)OC(=O)[C@H]5O[C@]543)[C@@]12C | Solute carrier organic anion transporter family member 1B3 (Homo sapiens, UniProt Q9NPD5) | class 1
CCCC(CCC)C(=O)[O-].[Na+] [VALPROATE SODIUM] | Solute carrier organic anion transporter family member 1B3 (Homo sapiens, UniProt Q9NPD5) | class 1
O=c1c2ccccc2oc2ccccc12 [XANTHONE] | Solute carrier organic anion transporter family member 1B3 (Homo sapiens, UniProt Q9NPD5) | class 1
C[C@]12CC[C@@H]3c4ccc(O)cc4CC[C@H]3[C@@H]1CC[C@@H]2OC(=O)CCC1CCCC1 [ESTRADIOL CYPIONATE] | Solute carrier organic anion transporter family member 1B3 (Homo sapiens, UniProt Q9NPD5) | class 1

###

# target_or_system: Solute carrier organic anion transporter family member 1B3 (Homo sapiens)
# condition_set: chinese hamster, cho, 10 µM
Counter-ions that a name gives are not always drawn.
Decide using residual activity alone. Strictly below 90%: Yes. Equal to or above 90%: No.

compound | target_or_system | class_name
CN[C@H](CC(=O)O)C(=O)O | Solute carrier organic anion transporter family member 1B3 (Homo sapiens) | No
C[C@]12CCC(=O)C(O)=C1CC[C@@H]1[C@@H]2CC[C@]2(C)C(=O)CC[C@@H]12 | Solute carrier organic anion transporter family member 1B3 (Homo sapiens) | No
COc1cccc(O)c1O | Solute carrier organic anion transporter family member 1B3 (Homo sapiens) | No
N=C1C=CC(=C(c2ccc(N)cc2)c2ccc(N)cc2)C=C1.N=C1C=CC(=C(c2ccc(N)cc2)c2ccc(N)cc2)C=C1.O.O.O=C(O)c1cc2ccccc2c(Cc2c(O)c(C(=O)O)cc3ccccc23)c1O [PARAROSANILINE PAMOATE] | Solute carrier organic anion transporter family member 1B3 (Homo sapiens) | No
CCC[C@H]1CC2=C(C[C@@H](CC)CC3=C1C(=O)OC3=O)C(=O)OC2=O | Solute carrier organic anion transporter family member 1B3 (Homo sapiens) | No
NC(=O)c1ccccc1O [SALICYLAMIDE] | Solute carrier organic anion transporter family member 1B3 (Homo sapiens) | No
O=C(Oc1cc(OC(=O)c2ccccc2)c2c(c1)O[C@H](c1ccc(OC(=O)c3ccccc3)c(OC(=O)c3ccccc3)c1)[C@@H](OC(=O)c1ccccc1)C2)c1ccccc1 [CATECHIN PENTABENZOATE] | Solute carrier organic anion transporter family member 1B3 (Homo sapiens) | No
CC(C)CCC[C@@H](C)[C@H]1CC[C@H]2[C@@H]3CC[C@@H]4C[C@H](O)CC[C@]4(C)[C@H]3CC[C@]12C [EPICOPROSTEROL] | Solute carrier organic anion transporter family member 1B3 (Homo sapiens) | No
COC(=O)C1=C(C)NC(C)=C(C(=O)OC)C1c1ccccc1[N+](=O)[O-] | Solute carrier organic anion transporter family member 1B3 (Homo sapiens) | No
C[C@@H]1CC[C@H]2[C@](C)(CO)[C@@H](O)CC[C@]2(C)[C@@]12CC[C@@](CO)(CCO)O2 | Solute carrier organic anion transporter family member 1B3 (Homo sapiens) | No
COc1c(Cl)ccc(Cl)c1C(=O)O | Solute carrier organic anion transporter family member 1B3 (Homo sapiens) | No
CC(=O)[C@H]1CC[C@H]2[C@@H]3CC(=O)C4=CC(=O)CC[C@]4(C)[C@H]3CC[C@]12C | Solute carrier organic anion transporter family member 1B3 (Homo sapiens) | Yes
COc1ccc(/C=C/C(=O)Nc2ccccc2C(=O)O)cc1OC | Solute carrier organic anion transporter family member 1B3 (Homo sapiens) | Yes
O=C(/C=C/C(=O)Oc1ccccc1C(=O)O)Oc1ccccc1C(=O)O [BISSALICYL FUMARATE] | Solute carrier organic anion transporter family member 1B3 (Homo sapiens) | No
C=C1c2c(Cl)ccc(O)c2C(=O)C2=C(O)[C@]3(O)C(=O)C(C(N)=O)=C(O)[C@@H](N(C)C)[C@@H]3[C@@H](O)[C@H]12.O=C(O)c1cc(S(=O)(=O)O)ccc1O [MECLOCYCLINE SULFOSALICYLATE] | Solute carrier organic anion transporter family member 1B3 (Homo sapiens) | No
CC1(C)CC2C1CCC1(C)OC1CCC2(C)O (stereo unspecified) | Solute carrier organic anion transporter family member 1B3 (Homo sapiens) | Yes
Cl.N=C(N)NC(=O)c1nc(Cl)c(N)nc1N.O.O [AMILORIDE HYDROCHLORIDE] | Solute carrier organic anion transporter family member 1B3 (Homo sapiens) | Yes
COP(=S)(OC)Oc1ccc([N+](=O)[O-])cc1 | Solute carrier organic anion transporter family member 1B3 (Homo sapiens) | No
C/C=C/c1ccc(OC)cc1 | Solute carrier organic anion transporter family member 1B3 (Homo sapiens) | No
O=C([O-])P(=O)([O-])[O-].[Na+].[Na+].[Na+] [FOSCARNET SODIUM] | Solute carrier organic anion transporter family member 1B3 (Homo sapiens) | No
CC1(C)C=Cc2c(cc3occ(-c4ccc5c(c4)OCO5)c(=O)c3c2O)O1 | Solute carrier organic anion transporter family member 1B3 (Homo sapiens) | No
Cc1cc(=O)[nH]c(=S)[nH]1 | Solute carrier organic anion transporter family member 1B3 (Homo sapiens) | Yes
CC(=O)O[C@H]1C[C@H](O[C@H]2[C@@H](O)C[C@H](O[C@H]3[C@@H](O)C[C@H](O[C@H]4CC[C@@]5(C)[C@H](CC[C@@H]6[C@@H]5C[C@@H](O)[C@]5(C)[C@@H](C7=CC(=O)OC7)CC[C@]65O)C4)O[C@@H]3C)O[C@@H]2C)O[C@H](C)[C@H]1O[C@@H]1O[C@H](CO)[C@@H](O)[C@H](O)[C@H]1O [LANATOSIDE C] | Solute carrier organic anion transporter family member 1B3 (Homo sapiens) | Yes
CC(=O)Oc1cc2c(c(C)c1OC(C)=O)CC=C1[C@]2(C)CC[C@]2(C)[C@@H]3C[C@](C)(C(=O)O)CC[C@]3(C)CC[C@@]12C | Solute carrier organic anion transporter family member 1B3 (Homo sapiens) | Yes
COc1ccc([C@H]2Oc3c(I)c(OC)cc(OC)c3C[C@@H]2O)cc1OC | Solute carrier organic anion transporter family member 1B3 (Homo sapiens) | No
O=C1C=C2C(=CCOC2O)O1 (stereo unspecified) | Solute carrier organic anion transporter family member 1B3 (Homo sapiens) | Yes
Cc1cc(=O)n(-c2ccccc2)n1C [ANTIPYRINE] | Solute carrier organic anion transporter family member 1B3 (Homo sapiens) | Yes
